Measured composite z-score accompanies every entry in the list below.
# EXPERIMENTAL PROTOCOL: small-molecule microarray binders of probe aNog, primary screen, biochemical, biotinylated probe, 635/667 nm fluorescence (AID 1115);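 note: probe is biotinylated aNog protein used at 0.15 µg/mL for 1 h at 4 C; z-score combines 667 nm fluorescence of each spot with its signal to noise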
# TEST CONDITIONS: higher = more signal
REPORTED PROPERTY: composite z-score

1) CCOC(=O)[C@H](Cc1ccccc1)NC(=O)OC1CC(CCC2CC(CC)=NO2)OC2(CCCC(COC(=O)NCCC(C)C)O2)C1 (some centres undefined) ... 0.152
2) C#CCCCON=C1[C@H]2CCn3c(=O)n(-c4ccccc4)c(=O)n3[C@H]2[C@H](O)[C@@H]2O[C@H]12 ... -0.17
3) CC(C)CON=C1C[C@@H](O)[C@@H](O)[C@@H]2[C@@H]3C(=O)N(c4ccc(F)cc4F)C(=O)[C@@H]3CC[C@H]12 ... 0.106
4) CSCC[C@@H]1NC(=O)CC=C[C@@H](C)COC(=O)[C@@H](C)COC1=O ... -0.15
5) COc1cccc([C@H]2Oc3ccc(OC)cc3C(=NO[C@H](C)c3cn([C@H](CO)Cc4ccccc4)nn3)[C@@H]2O)c1 ... -0.141
6) CCOC(=O)[C@H](CC(C)C)NC(=O)CCC1CC(OC(=O)NCCc2ccc(F)cc2)CC2(CCCC(COC(=O)NCC3CCCCC3)O2)O1 (some centres undefined) ... -0.45
7) O=C1[C@H]2[C@H]3[C@H](O)[C@H](O)CC(=NOCc4ccccc4)[C@H]3CC[C@H]2C(=O)N1Cc1ccc2c(c1)OCO2 ... -0.243
8) CC[C@@H](c1ccccc1)n1c(=O)n2n(c1=O)[C@H]1[C@H](O)[C@@H]3O[C@@H]3C(=O)[C@H]1CC2 ... -0.209
9) CON=C[C@@H](C)[C@H](OCc1ccccc1)C(C)C ... -0.204
10) COC(=O)[C@@H]1CC[C@H](C)[C@@H](c2ccc(C)cc2)N1C(=O)c1ccc(C=NO[C@@H]2O[C@H](COC(C)=O)[C@@H](OC(C)=O)[C@H](OC(C)=O)[C@H]2OC(C)=O)cc1 ... -0.0208
11) O=C1CCCC=C1C(CCc1ccccc1)OC(=O)c1ccc(Br)cc1 (centres undefined) ... -0.348
12) COC(=O)CC=C[C@@H](C)[C@@H](C=NOCC[C@@H]1C=C[C@H](OC(C)=O)[C@@H](COC(C)=O)O1)NS(=O)(=O)c1ccc(C)cc1 ... -0.429
13) COC(=O)CC=C[C@@H](C)[C@@H](C=NO[C@@H]1O[C@H](COC(C)=O)[C@@H](OC(C)=O)[C@H](OC(C)=O)[C@H]1OC(C)=O)OC ... -0.249
14) C[C@@H]1C=CCC(=O)OC[C@H]2O[C@@H](C=C[C@@H]2O)[C@H](C)C=CCC(=O)OC1 ... -0.285
15) O=C1C[C@@H](O)[C@@H](O)[C@@H]2[C@@H]3C(=O)N(C[C@@H]4CCCO4)C(=O)[C@@H]3CC[C@H]12 ... 0.0309
16) COC(=O)CC=C[C@H](C)[C@@H](OCc1cccc(Br)c1)[C@@H](C)[C@H](OC)C1CCCCC1 ... -0.449
17) CO[C@H]1COC(=O)[C@@H](C)COC(=O)[C@@H](OCc2ccccc2)C=C[C@@H]1C ... -0.37
18) CC(CCC(=O)OC[C@H]1O[C@H](C#Cc2ccccc2)C=C[C@@H]1Oc1ccc(C)cc1)=NO[C@H](C)c1cn([C@H](CO)Cc2ccccc2)nn1 ... 0.0169
19) COC(=O)[C@H](C)NC(=O)CCC1CC(OC(=O)NCc2ccc3c(c2)OCO3)CC2(CCCC(COC(=O)NCC(c3ccccc3)c3ccccc3)O2)O1 (some centres undefined) ... -0.11
20) CON=Cc1ccc(C(=O)N2[C@H](c3ccc(C)cc3)[C@@H](C)CC[C@H]2C(=O)OC)cc1 ... -0.0503
21) Cc1ccc(S(=O)(=O)NC(CCc2ccccc2)CC(=O)C(C)(C)C)cc1 (centres undefined) ... -0.0626
22) CCN1C(=O)[C@H]2[C@H]3[C@H](O)[C@H](O)CC(=NOCC(C)C)[C@@H]3CC[C@H]2C1=O ... -0.255
23) CO[C@@H]1C=CCC(=O)N2CCC[C@H]2C(=O)OC[C@@H](C)C(=O)OC[C@H]1C ... -0.246
24) COC(=O)[C@H](C)NC(=O)CCC1CC(OC(=O)NCc2ccc3c(c2)OCO3)CC2(CCCC(COC(=O)NCCc3ccccc3OC)O2)O1 (some centres undefined) ... -0.0653
25) COC(=O)[C@H](C)NC(=O)CCC1CC(OC(=O)NCc2ccc3c(c2)OCO3)CC2(CCCC(COC(=O)NCc3cccc(C(F)(F)F)c3)O2)O1 (some centres undefined) ... 0.33
26) COC(=O)[C@H]1O[C@@H](c2c(OC)c(OC)c(C)c(OC)c2OC)[C@H](C)[C@@H](O)[C@H]1C ... 0.0947
27) COC(=O)CC=C[C@@H](C)[C@@H](C=NOC[C@H]1O[C@H](c2ccccc2)C=C[C@@H]1Oc1ccc(OC)cc1)NS(=O)(=O)c1ccc(C)cc1 ... -0.181
28) O=C1[C@H]2[C@H]3[C@H](O)[C@H](O)CC(=NO[C@@H]4O[C@H](CO)[C@@H](O)[C@H](O)[C@H]4O)[C@H]3CC[C@H]2C(=O)N1c1cccc(Oc2ccccc2)c1 ... -0.129
29) CCOC(=O)CCN1C(=O)[C@H]2[C@H]3[C@H](O)[C@H](O)CC(=NOCC(C)C)[C@H]3CC[C@H]2C1=O ... 0.0669
